Test system: S. faec.
Assay: ALP binding to bacteria in presence of carbohydrates, polysaccharides, glycopeptides and lectins (Example 5, Table 3)
Conditions: ALP 100 mUnits plus 15 μg of additive
measured endpoint: absorbance (405 nm) of ALP bound to bacteria

{"compound": "O=C[C@H](O)[C@@H](O)[C@H](O)[C@H](O)C(=O)O", "meas value": 2.0}
{"compound": "O=C[C@@H](O)[C@H](O)[C@@H](O)[C@H](O)C(=O)O", "meas value": 2.0}
{"compound": "OC[C@H]1O[C@@H](O)[C@H](O)[C@@H](O)[C@@H]1O", "meas value": 2.4}
{"compound": "CC(=O)N[C@@H]1[C@@H](O)[C@H](O)[C@@H](CO)O[C@H]1O", "meas value": 2.0}
{"compound": "C[C@H](O)[C@@H](O)[C@@H](O)[C@H](O)C=O", "meas value": 2.3}
{"compound": "C[C@@H](O[C@H]1[C@H](O)[C@@H](CO)OC(O)[C@@H]1N)C(=O)O (stereo partly shown)", "meas value": 2.1}
{"compound": "CC(=O)N[C@@H]1[C@@H](O)[C@@H](O)[C@@H](CO)O[C@H]1O", "meas value": 1.9}
